Sourced from paper PMC7011995

Recorded measurements of pKi, one per entry
Target: hCA I (Homo sapiens, UniProt P00915)
Construct: gene CA1; recombinant, obtained in-house; cytosolic
Sequence (P00915 2-261): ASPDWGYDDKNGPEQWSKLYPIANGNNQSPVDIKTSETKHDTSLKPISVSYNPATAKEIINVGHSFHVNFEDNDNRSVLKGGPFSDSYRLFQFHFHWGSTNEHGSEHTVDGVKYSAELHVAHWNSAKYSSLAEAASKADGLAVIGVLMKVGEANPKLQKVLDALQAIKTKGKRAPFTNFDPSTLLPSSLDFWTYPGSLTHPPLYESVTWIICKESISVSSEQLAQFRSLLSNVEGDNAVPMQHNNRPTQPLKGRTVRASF
Assay: stopped-flow CO2 hydration assay, phenol red
Assay type: biochemical
pKi: −log10 of the molar value.

[
  {
    "MOLECULE": "C[C@]12CC[C@@H](O)C[C@@H]1CC[C@@H]1[C@@H]2CC[C@]2(C)C(=O)CC[C@@H]12 [compound 14, Androsterone]",
    "pKi": "< 4.00"
  },
  {
    "MOLECULE": "C[C@]12CCC(=O)C[C@@H]1CC[C@@H]1[C@@H]2CC[C@]2(C)[C@@H](O)CC[C@@H]12 [compound 16, Androstanolone]",
    "pKi": "< 4.00"
  }
]

# next molecule below
Data request, read-out pKi, for C[C@]12CC[C@H]3[C@@H](CCC4=CC(=O)CC[C@@]43C)[C@@H]1CC[C@@H]2O [compound 13, Testosterone]
< 4.00

----------
Recorded measurements of pKi, one per entry
Biological target: hCA IV (Homo sapiens, UniProt P22748)
Construct: gene CA4; recombinant, obtained in-house
Sequence (P22748 19-284): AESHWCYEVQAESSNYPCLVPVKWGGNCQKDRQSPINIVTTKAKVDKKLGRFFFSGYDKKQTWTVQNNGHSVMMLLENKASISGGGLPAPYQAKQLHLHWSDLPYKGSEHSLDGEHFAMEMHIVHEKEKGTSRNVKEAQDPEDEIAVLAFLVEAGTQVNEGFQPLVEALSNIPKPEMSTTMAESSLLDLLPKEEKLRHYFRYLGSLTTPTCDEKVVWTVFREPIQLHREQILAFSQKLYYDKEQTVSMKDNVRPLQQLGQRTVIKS
Assay: stopped-flow CO2 hydration assay, phenol red
Type: biochemical
Conditions: read-out: hCA IV
pKi: −log10 of the molar value.

# annotated cases, reported pKi shown
[
  {
    "COMPOUND STRING": "C[C@H](CCC(=O)O)[C@H]1CC[C@H]2[C@@H]3[C@@H](O)C[C@@H]4C[C@H](O)CC[C@]4(C)[C@H]3CC[C@]12C",
    "pKi": "< 4.00"
  },
  {
    "COMPOUND STRING": "C[C@]12CC[C@@H]3c4ccc(O)cc4CC[C@H]3[C@@H]1CC[C@H]2O",
    "pKi": "< 4.00"
  }
]

# next compound below
Data request, read-out pKi, for `C[C@H](CCC(=O)O)[C@H]1CC[C@H]2[C@@H]3[C@H](O)[C@H](O)[C@@H]4C[C@H](O)CC[C@]4(C)[C@H]3CC[C@]12C`
< 4.00

----------
Recorded measurements of Ki, one per entry
Molecular target: hCA II (Homo sapiens, UniProt P00918)
Construct: gene CA2; recombinant, obtained in-house; cytosolic
Test: stopped-flow CO2 hydration assay, phenol red
Format: biochemical
Settings: read-out: hCA II
// note: answer is a bare numeric in µM

# annotated cases, reported Ki shown
[
  {
    "COMPOUND": "C[C@H](CCC(=O)O)[C@H]1CC[C@H]2[C@@H]3[C@H](O)C[C@@H]4C[C@H](O)CC[C@]4(C)[C@H]3C[C@H](O)[C@]12C",
    "Ki (µM)": 48.9
  },
  {
    "COMPOUND": "C[C@H](CCC(=O)O)[C@H]1CC[C@H]2[C@@H]3[C@H](O)C[C@@H]4C[C@H](O)CC[C@]4(C)[C@H]3CC[C@]12C",
    "Ki (µM)": 53.9
  }
]

# next compound below
Lab request: please report Ki under test system hCA II (Homo sapiens, UniProt P00918) for C[C@H](CCC(=O)O)[C@H]1CC[C@H]2[C@@H]3C(=O)C[C@@H]4CC(=O)CC[C@]4(C)[C@H]3CC(=O)[C@]12C [compound 10, Dehydrocholic acid]
57.8

----------
Target: hCA II (Homo sapiens, UniProt P00918)
Construct: gene CA2; recombinant, obtained in-house; cytosolic
Assay: stopped-flow CO2 hydration assay, phenol red
Type: biochemical
Settings: read-out: hCA II
Mark 1 (yes) only for Ki values smaller than 60 µM; exact matches and larger values are 0 (no).

Answered cases to consult:
[
  {
    "COMPOUND STRING": "C[C@H](CCC(=O)NCCS(=O)(=O)O)[C@H]1CC[C@H]2[C@@H]3[C@@H](O)C[C@@H]4C[C@H](O)CC[C@]4(C)[C@H]3CC[C@]12C",
    "ASSIGNED LABEL": "0 (no)"
  },
  {
    "COMPOUND STRING": "C[C@H](CCC(=O)O)[C@H]1CC[C@H]2[C@@H]3[C@@H](O)C[C@@H]4C[C@H](O)CC[C@]4(C)[C@H]3CC[C@]12C",
    "ASSIGNED LABEL": "0 (no)"
  },
  {
    "COMPOUND STRING": "C[C@H](CCC(=O)NCC(=O)O)[C@H]1CC[C@H]2[C@@H]3[C@@H](O)C[C@@H]4C[C@H](O)CC[C@]4(C)[C@H]3CC[C@]12C",
    "ASSIGNED LABEL": "0 (no)"
  },
  {
    "COMPOUND STRING": "C[C@]12CC[C@@H]3c4ccc(O)cc4CC[C@H]3[C@@H]1CCC2=O",
    "ASSIGNED LABEL": "1 (yes)"
  }
]

Please indicate whether the reported Ki of `C[C@H](CCC(=O)O)[C@H]1CC[C@H]2[C@@H]3[C@H](O)[C@H](O)[C@@H]4C[C@H](O)CC[C@]4(C)[C@H]3CC[C@]12C` is strictly below 60 µM.
1 (yes)
